# target entity: T1, rat VEGF-A (rat, UniProt P16612-2 27-190, limits assumed)
# T1 sequence (looked up): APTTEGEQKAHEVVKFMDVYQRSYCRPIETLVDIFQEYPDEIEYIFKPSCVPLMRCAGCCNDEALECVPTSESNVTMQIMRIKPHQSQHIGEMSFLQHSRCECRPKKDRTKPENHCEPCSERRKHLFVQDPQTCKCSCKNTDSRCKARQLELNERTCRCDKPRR
# experiment notes: cell-based or functional assay
Each record here notes measured Cellular Assay IC50, rVEGF (50 ng/ml).
recorded endpoint: Cellular Assay IC50, rVEGF (50 ng/ml) (µM)

[[record]]
binder = "GCQLMQPFWGCKQDSDCLAGCVCHWYQSCG (designed binder) [VEGF_CKP9]"
data_value = 1

[[record]]
binder = "GCRDLDVKWDCKQDSDCLAGCFCQYYSSCG (designed binder) [VEGF_CKP10]"
data_value = 18

[[record]]
binder = "GCTTPWPPHEIMCKQDSDCLAGCVCGPNGFCG (designed binder) [VEGF_CKP12]"
data_value = 1220

[[record]]
binder = "GCPTTRFKQYCKQDSDCLAGCVCGPNGFCG (designed binder) [VEGF_CKP6]"
data_value = 711

[[record]]
binder = "GCQDPTFNWALYCKQDSDCLAGCVCQMYQSCG (designed binder) [VEGF_CKP7]"
data_value = 7

